What remaining at 0.25 h was measured for each of the following?
Test system: clostripain
Construct: is a two-chain proteinase that can be isolated from Clostridium histolyticum; purchased Worthington LS001641
Assay: Clostripain cleavage, LC/MS analysis
Assay type: in vitro ADME, Clostridium histolyticum
Details: Clostridium histolyticum, clostripain (isolated protease), pH 7.6, 0.2 U clostripain/mg, 15 min; read-out: remaining % ABD variant
Description: Enzymatic digestion of PEP07843 and the three new variants was performed using clostripain from Worthington (No. LS001641) in 25 mM NaPi buffer pH 7.6, 150 mM NaCl, 1 mM CaAc, 2.5 mM DTT. Clostripain was dissolved freshly before initiation of the experiment. In the first experiment, 0.2 U clostripain/mg ABD variant was incubated for up to 20 h at 25° C., but only a low level of cleavage was detected by SDS-PAGE and LC/MS analysis. […]
Where no end group is shown, it is not given here.
Please respond with the number in % and leave the unit unwritten.

Which measured remaining at 0.25 h value corresponds to GSSLAEAKEAANAELDSYGVSDFYKSLIDKAKTVEGVEALKDAILAALP [PEP12381] ?
100

Next record, please: GSSLAEAKEAANAELDSYGVSDFYKKLIDKAKTVEGVEALKDAILAALP [PEP12380]
101

Next record, please: GSSLAEAKEAANAELDSYGVSDFYKNLIDKAKTVEGVEALKDAILAALP [PEP12379]
101

Next record, please: GSSLAEAKEAANAELDSYGVSDFYKRLIDKAKTVEGVEALKDAILAALP [PEP07843, reference compound]
100
